Target: hGIIE F5L (Homo sapiens, UniProt Q9NZK7, F24L)
Construct: The gene encoding for hGIIE protein without signal peptide was amplified by PCR
Sequence (Q9NZK7 20-142 F24L): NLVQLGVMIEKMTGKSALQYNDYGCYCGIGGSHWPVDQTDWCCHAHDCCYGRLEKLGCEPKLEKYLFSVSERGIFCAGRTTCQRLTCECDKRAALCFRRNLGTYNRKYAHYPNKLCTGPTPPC
Test: Inhibition of hGIIE mutant F5L, sPLA2 assay kit
Conditions: F5L enzyme 6.4 µM; mean ± s.d., n=2; read-out: IC50 against hGIIE F5L
The reader will find reported IC50 values listed item by item below.
REPORTED_ENDPOINT: IC50

[[record]]
chemical_smiles = "Cc1c(C(=O)C(N)=O)c2c(OCC(=O)O)cccc2n1Cc1ccccc1C(F)(F)F"
tgt = "hGIIE F5L (Homo sapiens, UniProt Q9NZK7, F24L)"
reported_endpoint = "IC50"
result = "110 nM"

[[record]]
chemical_smiles = "Cc1c(C(=O)C(N)=O)c2c(OCC(=O)O)cccc2n1Cc1cccc(Br)c1"
tgt = "hGIIE F5L (Homo sapiens, UniProt Q9NZK7, F24L)"
reported_endpoint = "IC50"
result = "130 nM"

[[record]]
chemical_smiles = "Cc1c(C(=O)C(N)=O)c2c(OCC(=O)O)cccc2n1Cc1ccccc1-c1ccccc1"
tgt = "hGIIE F5L (Homo sapiens, UniProt Q9NZK7, F24L)"
reported_endpoint = "IC50"
result = "160 nM"

[[record]]
chemical_smiles = "CCc1c(CC(N)=O)c2cc(OCCCP(=O)(O)O)ccc2n1Cc1ccccc1"
tgt = "hGIIE F5L (Homo sapiens, UniProt Q9NZK7, F24L)"
reported_endpoint = "IC50"
result = "1790 nM"

[[record]]
chemical_smiles = "Cc1c(C(=O)C(N)=O)c2c(OCC(=O)O)cccc2n1Cc1cccc2ccccc12"
tgt = "hGIIE F5L (Homo sapiens, UniProt Q9NZK7, F24L)"
reported_endpoint = "IC50"
result = "250 nM"

